Data provenance: patent US20110230478A1

Assay: logP by HPLC on reversed-phase columns (C 18), EEC Directive 79/831 Annex V.A8
Type: physicochemical
Details: values marked [a]; pH 2.3

compound | logP
CSCC(C)(C)Nc1nc(Nc2ccccc2)ncc1Cl | 2.68[a];
CSCC(C)(C)Nc1nc(Nc2cccc(SC)c2)ncc1Cl | 3.48[a];
COCC(C(C)C)N(C)c1nc(Nc2ccccc2)ncc1Br (centres unmarked) | 2.47[a]
CCCC(CC)Nc1nc(Nc2ccccc2)ncc1Br (centres unmarked) | 2.44[a]
CC(CO)Nc1nc(Nc2ccccc2)ncc1Cl (centres unmarked) | 1.04[a]

---

Test: logP by HPLC on reversed-phase columns (C 18), EEC Directive 79/831 Annex V.A8
Assay type: physicochemical
Details: method marker [b]; footnote not given; compound 68 value matches logP (pH 2.3)

compound | logP
CC(C)Nc1nc(Nc2cccc(CN3CCN(C)C3=O)c2)ncc1Cl [Example 48] | 1.54[b]
COCC(C)Nc1nc(Nc2ccc(-c3cscn3)cc2)ncc1Cl (stereo not drawn) [Example 90] | 1.87[b]
COCC(C)Nc1nc(Nc2cccc(CC(=O)OC)c2)ncc1Br (stereo not drawn) [Example 113] | 1.87[b]
COCC(C)Nc1nc(Nc2cccc(OC)c2)ncc1Cl (stereo not drawn) [Example 85] | 1.78[b]
COCC(C)Nc1nc(Nc2ccc(OC(F)(F)F)c(Cl)c2)ncc1Br (stereo not drawn) [Example 118] | 4.23[b]
COCC(C)Nc1nc(Nc2ccc3c(c2)CCN3C(C)=O)ncc1Br (stereo not drawn) [Example 79] | 1.55[b]
COCCNc1nc(Nc2ccc(N3CCN(C(=O)OC(C)(C)C)CC3)cc2)ncc1Cl [Example 7] | 2.05[b]
COCC(C)Nc1nc(Nc2ccc(F)cc2F)ncc1Br (stereo not drawn) [Example 73] | 2.16[b]
COCC(C)Nc1nc(Nc2cccc(C#N)c2)ncc1Cl (stereo not drawn) [Example 83] | 2.11[b]

---

Assay: logP by HPLC on reversed-phase columns (C 18), EEC Directive 79/831 Annex V.A8
Format: physicochemical
Conditions: pH 2.3, logP [a]
chromatographic logP values, listed per item
propertyLabel: chromatographic logP

molecule | propertyLabel | recordedNumber
COCC(C)Nc1nc(Cl)ncc1Cl (centres unmarked) | chromatographic logP | 2.1
C=CCNc1nc(Cl)ncc1Cl | chromatographic logP | 2.12
CC(C)Nc1nc(Cl)ncc1Cl | chromatographic logP | 2.46
N#CCNc1nc(Cl)ncc1Cl | chromatographic logP | 1.27
CC(C)N(C)c1nc(Cl)ncc1Cl | chromatographic logP | 3.16
CCC(C)Nc1nc(Cl)ncc1Cl (centres unmarked) | chromatographic logP | 2.94
CCNc1nc(Cl)ncc1Cl | chromatographic logP | 1.93
CCN(C)c1nc(Cl)ncc1Cl | chromatographic logP | 2.68
Clc1ncc(Cl)c(NC2CCCC2)n1 | chromatographic logP | 3.16
CSCC(C)(C)Nc1nc(Cl)ncc1Cl | chromatographic logP | 3.47
COCC(C)Nc1nc(Cl)ncc1Br (centres unmarked) | chromatographic logP | 2.26

---

Assay: logP by HPLC on reversed-phase columns (C 18), EEC Directive 79/831 Annex V.A8
Type: physicochemical
Conditions: values marked [b]; footnote not given

molecule | logP
C=CCNC(=O)c1ccc(Nc2ncc(Br)c(NC(C)COC)n2)cc1 (racemic) | 1.75[b]
COCC(C)Nc1nc(Nc2ccc(N(C(C)=O)C3CCCCC3)cc2)ncc1Cl (stereo not drawn) | 2.33[b]
COCC(C)Nc1nc(Nc2cccc(NC(=O)C(C)C)c2)ncc1Cl (stereo not drawn) | 1.68[b]
